Test system: MRC5
method.summary: Cytotoxicity against human MRC5 cells after 72 hrs by MTS assay
Assay type: cell-based
protocol.conditions: MRC5, 72 h
metric: IC50 (nM)
Report only the number, with the unit nM understood.

For this compound ( CC(=O)OC[C@]12C(=O)C=C[C@H](O)[C@]13O[C@@H]3C[C@H]1[C@@H]3CC[C@H]([C@H](C)[C@H]4CC(C)=C(CO)C(=O)O4)[C@@]3(C)CC[C@@H]12 ), measured IC50 is 1800

Next:
For this compound ( CC1=C(CO)C(=O)O[C@@H]([C@@H](C)[C@H]2CC[C@H]3[C@@H]4C[C@H]5O[C@]56[C@@H](OC(=O)c5ccc(Cl)cc5)C=CC(=O)[C@]6(CO)[C@H]4CC[C@]23C)C1 ), measured IC50 is 2550

For this compound ( CC1=C(CO)C(=O)O[C@@H]([C@@H](C)[C@H]2CC[C@H]3[C@@H]4C[C@H]5O[C@]56[C@@H](O)C=C(I)C(=O)[C@]6(CO)[C@H]4CC[C@]23C)C1 ), measured IC50 is 9100
